Data provenance is patent US12473290B2.

Test system: IFNα Kit225 Reporter (Kit225 T cells with a stably-integrated STAT-dependent luciferase reporter, stimulated with IFNα)
Test: Kit225 T Cell Assay, IFNα-stimulated STAT-dependent luciferase reporter
Type: cell-based
Conditions: 200 U/mL human recombinant IFNα, 5-6 hours, luciferase expression
pIC50: −log10 of the molar value.
Endpoint Name: pIC50

Compound: N#Cc1cnc2c(Nc3cccc(N4CCOCC4=O)n3)cc(N[C@@H]3CCCC[C@H]3O)nn12
Endpoint Name: pIC50
Experimental Value: 6.42
//
Compound: CC(=O)N1CCN(c2cccc(Nc3cc(N[C@@H]4CCCC[C@H]4O)nn4c(C#N)cnc34)n2)CC1
Endpoint Name: pIC50
Experimental Value: 6.30
//
Compound: CS(=O)(=O)NCc1ccc(-c2cccc(Nc3cc(N[C@@H]4CCCC[C@H]4O)nn4c(C#N)cnc34)n2)cc1
Endpoint Name: pIC50
Experimental Value: 6.12
//
Compound: CC(C)N1CCN(c2cccc(Nc3cc(N[C@@H]4CCCC[C@H]4O)nn4c(C#N)cnc34)n2)CC1
Endpoint Name: pIC50
Experimental Value: 6.06
//
Compound: CN(C(=O)c1ccc(Nc2cc(NC3CCOCC3)nn3c(C#N)cnc23)nc1OCC(F)F)C1COC1
Endpoint Name: pIC50
Experimental Value: 6.07
//
Compound: CC(C)(CC(N)=O)NC(=O)c1cccc(Nc2cc(NC34CC5CC(CC(O)(C5)C3)C4)nn3c(C#N)cnc23)n1
Endpoint Name: pIC50
Experimental Value: 6.19
//
Compound: CN(C)c1nc(Nc2cc(N[C@@H]3CCCC[C@H]3O)nn3c(C#N)cnc23)ccc1C(=O)N1CCN(c2ccccc2F)CC1
Endpoint Name: pIC50
Experimental Value: 6.14
//
Compound: CC(C)Oc1nc(Nc2cc(N[C@@H]3CCCC[C@H]3O)nn3c(C#N)cnc23)ccc1C(=O)N1CCCC1
Endpoint Name: pIC50
Experimental Value: 6.08
//
Compound: N#Cc1cnc2c(Nc3ccc(C(=O)N4CCCC4)c(OCC(F)F)n3)cc(N[C@H]3CCCC[C@@H]3O)nn12
Endpoint Name: pIC50
Experimental Value: 6.19
//
Compound: COc1cccc2ccc(Nc3cc(NC45CC6CC(O)(CC(F)(C6)C4)C5)nn4c(C#N)cnc34)nc12 (stereo not drawn)
Endpoint Name: pIC50
Experimental Value: 6.07
//
Compound: N#Cc1cnc2c(Nc3ccc(C(=O)N4[C@H]5CC[C@@H]4CC5)c(OCC(F)F)n3)cc(NC3CCOCC3)nn12
Endpoint Name: pIC50
Experimental Value: 6.44
//
Compound: CC(C)(O)C(=O)Nc1cccc(Nc2cc(NC3CCOCC3)nn3c(C#N)cnc23)n1
Endpoint Name: pIC50
Experimental Value: 6.35
//
Compound: CC(C)(C)N1CCN(c2cccc(Nc3cc(N[C@@H]4CCCC[C@H]4O)nn4c(C#N)cnc34)n2)C1=O
Endpoint Name: pIC50
Experimental Value: 6.35
//
Compound: N#Cc1cnc2c(Nc3ccc(C(=O)N[C@@H]4CCC[C@@H]4O)cn3)cc(NCC3CC3)nn12
Endpoint Name: pIC50
Experimental Value: 6.85
//
Compound: CC(C)(C)NC(=O)c1ccc(Nc2cc(NCC3CC3)nn3c(C#N)cnc23)nc1
Endpoint Name: pIC50
Experimental Value: 7.10
//
Compound: CC(C)(C)CNc1cc(Nc2cccc(NC(=O)C3CC3)n2)c2ncc(C#N)n2n1
Endpoint Name: pIC50
Experimental Value: 6.34
//
Compound: CC(C)(C)Oc1nc(Nc2cc(N[C@@H]3CCCC[C@H]3O)nn3c(C#N)cnc23)ccc1C(=O)N1CCCC1
Endpoint Name: pIC50
Experimental Value: 6.42
//
Compound: N#Cc1cnc2c(Nc3ccc(C(=O)N4CCCC4)c(N4CCCC4)n3)cc(N[C@@H]3CCCC[C@H]3O)nn12
Endpoint Name: pIC50
Experimental Value: 6.16
//
Compound: N#Cc1cnc2c(Nc3ccc(C(=O)N4CC[C@@H](C#N)C4)c(OCC(F)F)n3)cc(NC3CCOCC3)nn12
Endpoint Name: pIC50
Experimental Value: 6.80
//
Compound: N#Cc1cnc2c(Nc3cccc(NC(=O)C4CC4)n3)cc(NCC3CC3)nn12
Endpoint Name: pIC50
Experimental Value: 6.80
//
Compound: CC1(C)CCCN1C(=O)c1ccc(Nc2cc(N[C@H]3CCCC[C@@H]3O)nn3c(C#N)cnc23)nc1
Endpoint Name: pIC50
Experimental Value: 6.44
//
Compound: N#Cc1cnc2c(Nc3ccc(C(=O)NCC4CC4)cn3)cc(NCC3CC3)nn12
Endpoint Name: pIC50
Experimental Value: 6.80
//
Compound: CC(C)(C)NC(=O)c1cccc(Nc2cc(NC34CC5CC(CC(O)(C5)C3)C4)nn3c(C#N)cnc23)n1
Endpoint Name: pIC50
Experimental Value: 6.31
//
Compound: N#Cc1cnc2c(Nc3cccc(N4CCCCCC4=O)n3)cc(N[C@@H]3CCCC[C@H]3O)nn12
Endpoint Name: pIC50
Experimental Value: 6.03
//
Compound: CN1CCN(c2cccc(Nc3cc(N[C@@H]4CCCC[C@H]4O)nn4c(C#N)cnc34)n2)CC1
Endpoint Name: pIC50
Experimental Value: 6.70
//
Compound: N#Cc1cnc2c(Nc3cccc(N4CCN(S(=O)(=O)N5CCOCC5)CC4)n3)cc(N[C@@H]3CCCC[C@H]3O)nn12
Endpoint Name: pIC50
Experimental Value: 6.10
//
Compound: N#Cc1cnc2c(Nc3cccc(NC(=O)c4ccccc4)n3)cc(N[C@@H]3CCCC[C@H]3O)nn12
Endpoint Name: pIC50
Experimental Value: 6.57
